- Test system: NCI-H226 lung
- test_protocol: NCI tumour cell line growth inhibition, 48 h
measured_endpoint: TGI

# annotated cases, reported TGI shown
[
  {
    "molecule": "C#Cc1ccccc1C(=O)OC",
    "target_or_test_system": "NCI-H226 lung",
    "TGI": "> 100 µM"
  },
  {
    "molecule": "NC(=O)CN1CCN(c2nc(N3CCCC3)c3nc(Cl)c(NCc4ccccc4)nc3n2)CC1",
    "target_or_test_system": "NCI-H226 lung",
    "TGI": "39.9 µM"
  }
]

Find the recorded TGI belonging to COCCOC(=O)CCn1cc(F)c(=O)[nH]c1=O and report it. > 150 mg/L

// query: C=CC(=O)N1C/C(=C\c2ccc(F)cc2)C(=O)/C(=C/c2ccc(F)cc2)C1 8.78 µM

Same question, Nc1ncc(Cc2nn3c(COc4ccc(Cl)cc4)nnc3s2)s1 this time > 100 µM

Note, next up: O=C(NC(Cc1c[nH]c2ccccc12)C(=O)O)/C(=C/c1ccccc1)NC(=O)c1ccccc1 (stereo unspecified) > 100 µM

How about O=c1oc2ccccc2cc1-c1nc2ccccc2s1 ? 33 µM

Also CCOC(=O)c1cc2cc([N+](=O)[O-])ccc2oc1=O ? > 100 µM

Now this one: COc1cc2c(cc1OCc1ccccc1)NC(=O)[C@@H]1C[C@@H](O)CN1C2=O > 100 µM

Try the molecule CCn1cc(C2NC(=O)c3cc(F)ccc3N2)c2cccc(Cl)c21 (stereo unspecified) 9.63 µM

What do we get for Cn1c(=O)c2[nH]cnc2n(C)c1=O ? > 100 µM
